# test_description: Critical micelle concentration of the compound in 0.15 M NaCl water solution
# Type: physicochemical
# recorded_conditions: buffer

molecule | CMC
CC[C@H]1[C@@H](O)[C@@H]2[C@H](CC[C@]3(C)[C@@H]([C@H](C)CCC(=O)[O-])[C@@H](O)C[C@@H]23)[C@@]2(C)CC[C@@H](O)C[C@@H]12.[Na+] | 5.9 mM
C[C@H](CCC(=O)[O-])[C@H]1[C@H](O)C[C@H]2[C@@H]3[C@H](O)C[C@@H]4C[C@H](O)CC[C@]4(C)[C@H]3CC[C@]12C.[Na+] [AVICHOLIC ACID SODIUM SALT] | 10 mM
C[C@H](CCC(=O)O)[C@H]1CC[C@H]2[C@@H]3[C@H](O)C[C@@H]4C[C@H](O)CC[C@]4(C)[C@H]3CC[C@]12C | 3 mM
CC[C@H]1[C@@H](O)[C@@H]2[C@H](C[C@H](O)[C@]3(C)[C@@H]([C@H](C)C[C@H](C)C(=O)O)CC[C@@H]23)[C@@]2(C)CC[C@@H](O)C[C@@H]12 | 2 mM
C[C@H](CCC(=O)O)[C@H]1CC[C@H]2[C@@H]3[C@H](O)C[C@@H]4C[C@H](O)CC[C@]4(C)[C@H]3C[C@H](O)[C@]12C | 9.2 mM

* * *

Quick reference: pEC50 of the listed items.
# target_under_test: Bile acid receptor (Homo sapiens)
# Sequence (Q96RI1 whole entry, the tested form may be a part): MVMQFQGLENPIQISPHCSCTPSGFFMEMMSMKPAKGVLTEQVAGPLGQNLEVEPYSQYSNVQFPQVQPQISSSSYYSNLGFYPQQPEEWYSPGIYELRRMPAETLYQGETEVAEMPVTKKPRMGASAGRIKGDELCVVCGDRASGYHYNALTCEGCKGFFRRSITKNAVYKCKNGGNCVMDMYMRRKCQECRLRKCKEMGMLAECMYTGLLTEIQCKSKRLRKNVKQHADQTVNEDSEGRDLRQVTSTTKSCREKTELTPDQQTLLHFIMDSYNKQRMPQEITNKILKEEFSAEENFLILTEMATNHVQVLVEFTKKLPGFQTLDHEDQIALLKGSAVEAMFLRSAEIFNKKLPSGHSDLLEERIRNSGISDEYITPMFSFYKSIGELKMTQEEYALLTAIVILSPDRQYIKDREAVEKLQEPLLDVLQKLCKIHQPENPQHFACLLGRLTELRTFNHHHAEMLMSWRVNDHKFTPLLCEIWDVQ
# test_description: Agonist activity at GST-tagged FXR-LBD using biotinylated-SRC-1 peptide as substrate preincubated with compound for 30 mins measured after 4 hrs
# Type: functional
pEC50: −log10 of the molar value.

molecule | inequality_operator | pEC50
CC[C@H]1[C@@H](O)[C@@H]2[C@H](CC[C@]3(C)[C@@H]([C@H](C)CCC(=O)[O-])[C@@H](O)C[C@@H]23)[C@@]2(C)CC[C@@H](O)C[C@@H]12.[Na+] | = | 4.94
C[C@H](CCC(=O)[O-])[C@H]1[C@H](O)C[C@H]2[C@@H]3[C@H](O)C[C@@H]4C[C@H](O)CC[C@]4(C)[C@H]3CC[C@]12C.[Na+] [AVICHOLIC ACID SODIUM SALT] | < | 4.00
C[C@H](CCC(=O)O)[C@H]1[C@@H](O)C[C@H]2[C@@H]3[C@H](O)C[C@@H]4C[C@H](O)CC[C@]4(C)[C@H]3CC[C@]12C | = | 4.26
CC[C@H]1[C@@H](O)[C@@H]2[C@H](CC[C@]3(C)[C@@H]([C@H](C)CCC(=O)O)[C@H](O)C[C@@H]23)[C@@]2(C)CC[C@@H](O)C[C@@H]12 | = | 4.66

* * *

# test_description: Aqueous solubility of the compound in 0.1 M HCl water at […] by HPLC-ES-MS/MS
# Assay type: physicochemical
Quick reference: solubility of the listed items.

molecule | solubility / µM
CC[C@H]1[C@@H](O)[C@@H]2[C@H](CC[C@]3(C)[C@@H]([C@H](C)CCC(=O)[O-])[C@@H](O)C[C@@H]23)[C@@]2(C)CC[C@@H](O)C[C@@H]12.[Na+] | 120
C[C@H](CCC(=O)[O-])[C@H]1[C@H](O)C[C@H]2[C@@H]3[C@H](O)C[C@@H]4C[C@H](O)CC[C@]4(C)[C@H]3CC[C@]12C.[Na+] [AVICHOLIC ACID SODIUM SALT] | 188

* * *

# target_under_test: Albumin (Homo sapiens)
# Sequence (P02768 whole entry): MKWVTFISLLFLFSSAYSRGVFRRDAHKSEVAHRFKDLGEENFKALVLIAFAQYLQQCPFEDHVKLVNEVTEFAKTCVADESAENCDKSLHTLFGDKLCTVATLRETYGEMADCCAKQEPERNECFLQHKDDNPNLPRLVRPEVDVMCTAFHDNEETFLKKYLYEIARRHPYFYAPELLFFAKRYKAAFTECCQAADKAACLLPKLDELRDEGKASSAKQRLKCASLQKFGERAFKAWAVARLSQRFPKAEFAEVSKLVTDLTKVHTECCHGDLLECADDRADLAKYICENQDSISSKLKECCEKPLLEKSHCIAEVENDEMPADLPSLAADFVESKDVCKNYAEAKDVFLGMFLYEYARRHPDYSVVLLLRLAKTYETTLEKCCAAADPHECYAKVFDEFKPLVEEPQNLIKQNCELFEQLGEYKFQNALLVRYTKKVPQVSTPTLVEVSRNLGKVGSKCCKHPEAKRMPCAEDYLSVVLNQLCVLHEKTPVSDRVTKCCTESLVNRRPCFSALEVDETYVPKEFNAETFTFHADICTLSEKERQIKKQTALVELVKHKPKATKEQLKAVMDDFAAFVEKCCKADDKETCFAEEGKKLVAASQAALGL
# test_description: Binding affinity to albumin by equilibrium dialysis
# Type: ADME
# Design: concentration or dose not given beside the values
# recorded_conditions: isolated protein
assay_endpoint: Activity (%)

compound | assay_endpoint | numeric_readout
C[C@H](CCC(=O)[O-])[C@H]1[C@H](O)C[C@H]2[C@@H]3[C@H](O)C[C@@H]4C[C@H](O)CC[C@]4(C)[C@H]3CC[C@]12C.[Na+] [AVICHOLIC ACID SODIUM SALT] | Activity | 58
C[C@H](CCC(=O)O)[C@H]1CC[C@H]2[C@@H]3[C@H](O)C[C@@H]4C[C@H](O)CC[C@]4(C)[C@H]3C[C@H](O)[C@]12C [CHOLIC ACID] | Activity | 50
C[C@H](CCC(=O)O)[C@H]1CC[C@H]2[C@@H]3[C@H](O)C[C@@H]4C[C@H](O)CC[C@]4(C)[C@H]3CC[C@]12C [CHENODIOL] | Activity | 93
CC[C@H]1[C@@H](O)[C@@H]2[C@H](CC[C@]3(C)[C@@H]([C@H](C)CCC(=O)[O-])[C@@H](O)C[C@@H]23)[C@@]2(C)CC[C@@H](O)C[C@@H]12.[Na+] | Activity | 83
CC[C@H]1[C@@H](O)[C@@H]2[C@H](C[C@H](O)[C@]3(C)[C@@H]([C@H](C)C[C@H](C)C(=O)O)CC[C@@H]23)[C@@]2(C)CC[C@@H](O)C[C@@H]12 | Activity | 62

* * *

# target_under_test: G-protein coupled bile acid receptor 1 (Homo sapiens, UniProt Q8TDU6)
# Sequence (Q8TDU6 whole entry): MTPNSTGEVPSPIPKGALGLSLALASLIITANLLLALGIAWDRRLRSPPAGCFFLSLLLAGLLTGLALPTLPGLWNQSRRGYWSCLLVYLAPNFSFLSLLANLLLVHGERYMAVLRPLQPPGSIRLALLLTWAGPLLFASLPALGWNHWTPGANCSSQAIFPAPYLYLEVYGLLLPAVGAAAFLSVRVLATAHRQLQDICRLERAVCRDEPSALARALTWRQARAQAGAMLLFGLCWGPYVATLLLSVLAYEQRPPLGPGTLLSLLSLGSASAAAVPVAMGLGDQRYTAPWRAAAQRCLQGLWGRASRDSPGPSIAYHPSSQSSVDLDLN
# test_description: Agonist activity at TGR5 expressed in NCI-H716 cells assessed as cAMP level after 60 mins by FRET analysis
pEC50: −log10 of the molar value.
assay_endpoint: pEC50

molecule | numeric_readout
CC[C@H]1[C@@H](O)[C@@H]2[C@H](CC[C@]3(C)[C@@H]([C@H](C)CCC(=O)[O-])[C@@H](O)C[C@@H]23)[C@@]2(C)CC[C@@H](O)C[C@@H]12.[Na+] | 6.19
CC[C@H]1[C@@H](O)[C@@H]2[C@H](CC[C@]3(C)[C@@H]([C@H](C)CCC(=O)O)[C@H](O)C[C@@H]23)[C@@]2(C)CC[C@@H](O)C[C@@H]12 | 4.06
C[C@H](CCC(=O)O)[C@H]1[C@@H](O)C[C@H]2[C@@H]3[C@H](O)C[C@@H]4C[C@H](O)CC[C@]4(C)[C@H]3CC[C@]12C | 4.60
C[C@H](CCC(=O)[O-])[C@H]1[C@H](O)C[C@H]2[C@@H]3[C@H](O)C[C@@H]4C[C@H](O)CC[C@]4(C)[C@H]3CC[C@]12C.[Na+] [AVICHOLIC ACID SODIUM SALT] | 3.80
